From: a melting point compilation (Tetko et al.; mined from patent text by program, amines drawn as free bases though some values may be those of a salt)

readout-label: melting point

Answered cases to consult:
OCCNc1ccnc2ccccc12 : 152 to 154 °C
N=C(Nc1ccc(F)cc1)Nc1nc(-c2ccccc2)cs1 : 156 to 158 °C
CNC(=O)C1CN(C(c2ccccc2)c2ccccc2)C1 : 103 to 107 °C

input: Please indicate melting point recorded for CCOC(=O)c1cn(C(C)(C)C)c2nc(SCC)c(F)cc2c1=O
output: 159 to 160 °C

input: Please indicate melting point recorded for CCO[PH](=O)CN(C)c1cc(Oc2ccc(C(F)(F)F)cc2Cl)ccc1[N+](=O)[O-] (stereo not given)
output: 118 to 120 °C

---

readout-label: melting point

Answered cases to consult:
CCCCOC(=O)C(N)c1ccc(OCC(O)CNC(C)C)nc1 (centres undefined) : 85 to 87 °C
CC1(C)C(c2ccc(S(C)(=O)=O)cc2)=C(c2ccccc2)C1F (centres undefined) : 79 to 81.5 °C
COc1ccc(C(=O)C2=C(O)C(=O)N(c3nnc(C)s3)C2c2ccc(C#N)cc2)cc1 (centres undefined) : 185 °C

Proceed to the following item.
input: Please indicate melting point recorded for Cc1csc(-c2ccc3c(c2)C=C(C(=O)Nc2ccc(CN(C)C4CCOCC4)cc2)CCS3(=O)=O)c1
output: 232 to 234 °C
